test: in vitro; details: human, microsomes
Description: Clearance in human microsomes
observation type: microsomal CLint (µL/min/mg)
Your answer should be a plain number; it is taken to be in µL/min/mg.

[
  {
    "smiles string": "Cc1nc(Nc2nc3cnc(N4CCN(C)CC4)cc3[nH]2)cc(C2CC2)c1F",
    "unit of measure": "µL/min/mg",
    "microsomal CLint": 21.8
  }
]

Would you kindly look at the next entry?
q: # return recorded microsomal CLint for entry Cc1ccc(Nc2nc3ccc(N4CCN(C)CC4)cc3[nH]2)nc1
a: 4.8

---

test: AUClast in Plasmodium berghei infected mouse at 100 mg/kg treated with four once daily doses; type: ADME, organism-based; design: time 0 - last, dose 100 mg/kg; conditions: plasma
observation type: AUC(0-t)
Answer format: value, then unit.

q: Please list AUC(0-t) recorded for the molecule CN1CCN(c2ccc3nc(Nc4ccc(C(F)(F)F)cn4)[nH]c3c2)CC1
a: 41.6 µM·h
